The measured values listed here are drawn from patent US20130116241A1.

Please provide measured pIC50 for the entries that follow.
study.system: human PDE10A (UniProt Q9Y233)
Sequence (Q9Y233 290-1055 limits assumed): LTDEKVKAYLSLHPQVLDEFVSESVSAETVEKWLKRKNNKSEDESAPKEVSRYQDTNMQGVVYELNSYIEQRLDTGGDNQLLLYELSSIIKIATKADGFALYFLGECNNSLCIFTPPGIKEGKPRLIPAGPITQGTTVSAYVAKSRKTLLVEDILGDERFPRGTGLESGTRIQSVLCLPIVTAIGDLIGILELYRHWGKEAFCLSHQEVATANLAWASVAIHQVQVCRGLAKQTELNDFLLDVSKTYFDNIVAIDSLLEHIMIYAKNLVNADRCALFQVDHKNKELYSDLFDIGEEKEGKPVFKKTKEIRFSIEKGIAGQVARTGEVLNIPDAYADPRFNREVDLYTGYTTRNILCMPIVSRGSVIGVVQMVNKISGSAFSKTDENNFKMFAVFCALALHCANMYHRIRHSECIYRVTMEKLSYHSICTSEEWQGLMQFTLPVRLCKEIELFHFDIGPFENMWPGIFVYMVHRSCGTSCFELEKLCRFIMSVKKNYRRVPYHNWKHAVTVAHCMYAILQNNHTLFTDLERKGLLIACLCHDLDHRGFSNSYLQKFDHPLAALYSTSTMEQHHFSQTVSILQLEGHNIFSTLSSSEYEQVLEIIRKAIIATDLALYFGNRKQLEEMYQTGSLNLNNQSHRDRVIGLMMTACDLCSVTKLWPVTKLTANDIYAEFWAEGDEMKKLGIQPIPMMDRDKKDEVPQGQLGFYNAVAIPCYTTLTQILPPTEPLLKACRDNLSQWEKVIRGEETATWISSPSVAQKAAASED
protocol: Measurement of PDE activity (recombinant enzyme, HTRF cAMP kit)
Type: biochemical
condition.summary: Table 1, substrate 20 nM for PDE10, 60 minutes at 29 C, read-out: IC50
pIC50: −log10 of the molar value. Structures can show the parent of a compound that is named as a salt.

In the examples that follow, each entry is paired with its recorded pIC50.
Would you please give the reported pIC50 of O=c1c2c(-c3cccnc3)cccc2ccn1C1CC1c1ccc2ccccc2n1 (single isomer, unassigned; (+)) [Example 239a] with human PDE10A (UniProt Q9Y233)?
6.70 to 7.00

Would you please give the reported pIC50 of O=c1c2c(-c3ccoc3)cccc2cnn1CCc1ccc2ccccc2n1 [Example 127] with human PDE10A (UniProt Q9Y233)?
> 7.00

Would you please give the reported pIC50 of O=c1c2c(-c3ccncc3)csc2ccn1C1CC1c1ccc2ccccc2n1 (single isomer, unassigned) [293b] with human PDE10A (UniProt Q9Y233)?
> 7.00

Would you please give the reported pIC50 of O=c1c2c(-c3cccnc3)csc2ccn1CCc1ccc2cc(F)ccc2n1 [compound 308, hydrochloride] with human PDE10A (UniProt Q9Y233)?
> 7.00

Would you please give the reported pIC50 of COc1cccc(-c2cccc3cnn(CCc4ccc5ccccc5n4)c(=O)c23)c1 [Example 113] with human PDE10A (UniProt Q9Y233)?
6.70 to 7.00

Would you please give the reported pIC50 of O=c1c2c(-c3ccncc3)cccc2cnn1[C@@H]1C[C@H]1c1ccc2cc(F)ccc2n1 (relative stereo) [compound 278] with human PDE10A (UniProt Q9Y233)?
> 7.00

Would you please give the reported pIC50 of CN(c1cccc2cnn(CCc3cn4ccccc4n3)c(=O)c12)C1COC1 [compound 387] with human PDE10A (UniProt Q9Y233)?
> 7.00

Let us move to another entry and its pIC50.
Would you please give the reported pIC50 of COc1cc(F)cc(-c2cccc3cnn(CCc4ccc5ccccc5n4)c(=O)c23)c1 [Example 157] with human PDE10A (UniProt Q9Y233)?
6.30 to 6.70
